Tested on: A549/ATCC NSCLC
Test: NCI-60 one-dose screen, 48 h (100 = growth as untreated, 0 = no growth, -100 = all killed)
Conditions: 10 µM
Experimental: Growth inhibition of the A549/ATCC human Non-Small Cell Lung tumor cell line is measured as a screen for anti-cancer activity. Cells are grown in 96 well plates and exposed to the test compound for 48 hours. Compounds are tested at a single concentration, which is 10^-5 M for most compounds. The reported endpoint is percent growth (GI% or GIPRCNT), where numbers from 0 - 100% represent growth inhibition, and numbers from -100% - 0 represent cell death. […]
About 83,000 compounds went through this panel and 20% of them were active in at least one assay; those are over-represented in the sample as a whole.
ASSAY READOUT: growth (%)
Give bare numbers, in %.

Sample answers from the record:
COMPOUND	OUTPUT UNIT	growth
CC(=O)CSC(C)=O	%	99.6
CCC1(C(C)C)NC(=O)NC1=O (stereo unspecified)	%	96.1
COc1ccc2c(c1)-c1c(c3cc(OC)ccc3n(CCN(C)C)c1=O)C2=O	%	-18.7
COc1cc(NC(=O)CCSc2nc3ccc(C)cc3c(=O)n2Cc2ccccc2)cc(OC)c1OC	%	42.6
COc1cc2c(cc1OC)N(CCO)C1=C(C(=O)OC1)C2c1ccc(Cl)c(Cl)c1 (stereo unspecified)	%	98.6

Consider the additional compound presented here.
Qu. For the compound CC[C@H](C)C(=O)O[C@H]1CCC=C2C=C[C@H](C)C(CCC3C[C@@H](O)CC(=O)O3)[C@H]21 (stereo partly specified) , give its measured growth value.
Ans. 97.2

====

test system: SK-MEL-2 melanoma; assay: NCI-60 one-dose screen, 48 h; conditions: 10 µM
About 83,000 compounds went through this panel and 20% of them were active in at least one assay; those are over-represented in the sample as a whole. The source made the active and inactive calls. How the source made its calls: active means growth percent below 10; inactive means the rest.
Select the matching outcome among TRUE for active, FALSE for inactive

Field: example entries. Status: answers known.
COMPOUND	CLASSIFICATION
Fc1ccc2nc(-c3nc(-c4ccccc4)n4ccccc34)[nH]c2c1	TRUE
O=C(Nc1cccc(-n2cc(-c3ccncc3)c(-c3cc(O)cc(Cl)c3)n2)c1)c1ccc(N2CCOCC2)c(C(F)(F)F)c1	FALSE
c1ccc([C@H]2CN3CCSC3=N2)cc1	FALSE
O=C(CCCCC(=O)Nc1ccc2c(c1)/C(=C/c1ccc[nH]1)C(=O)N2)NO	FALSE
COc1cc(-c2cc(/C=C/C(=O)c3ccc(F)c(F)c3)[nH]n2)cc(OC)c1OC	FALSE
Nc1ccccc1NC(=O)CCCCC(=O)Nc1ccc2c(c1)/C(=C/c1ccc[nH]1)C(=O)N2	FALSE

Qu. Returns: the outcome recorded for COc1ccc(OC)c2c1C(=O)CC2C (centres undefined) in this assay.
Ans. FALSE

Qu. Returns: the outcome recorded for "O=C(c1ccc(Cl)cc1Cl)N1CCOCC1" in this assay.
Ans. FALSE

Qu. Returns: the outcome recorded for "CC/C(=C(/c1ccc(OCCN(C)C)cc1)c1ccc(OC(=O)CCCCCCCCC(=O)c2c(C)[nH]c(/C=C3\N=C(c4ccc[nH]4)C=C3OC)c2C)cc1)c1ccccc1" in this assay.
Ans. FALSE

====

tested on: A498 renal; assay: NCI-60 one-dose screen, 48 h (100 = growth as untreated, 0 = no growth, -100 = all killed); conditions: 10 µM
About 83,000 compounds went through this panel and 20% of them were active in at least one assay; those are over-represented in the sample as a whole.
ASSAY READOUT: growth (%)
One number for each entry, in %.

Sample answers from the record:
COMPOUND	OUTPUT UNIT	growth
O=C(Nc1ccc(Cl)c([N+](=O)[O-])c1)Nc1nc2ccccc2s1	%	85.7
C[C@@H]1C=C2C(=O)O[C@@H]3CC[C@H](C1)[C@]23O	%	129
CC/C(=C(/c1ccc(OCCN(C)C)cc1)c1ccc(OC(=O)CCC(=O)c2c(C)[nH]c(/C=C3\N=C(c4ccc[nH]4)C=C3OC)c2C)cc1)c1ccccc1	%	50.3
CCN(CC)CCCOCCCNc1cc(OC)cc2cccnc12	%	72
CCCCCCCCCCCCCCCCN(C(C)c1ccccc1)S(=O)(=O)c1ccc(OC)c(N)c1 (stereo not drawn)	%	123
CCCCCCc1cc(N=Nc2ccc(S(=O)(=O)Nc3cc(C)nc(C)n3)cc2)c(O)cc1O	%	98.7
COc1cc(C2CC(c3ccc(Nc4ccnc5cc(Cl)ccc45)cc3)=NN2c2ccc(Cl)cc2)cc(OC)c1OC (stereo not drawn)	%	52.3
CC(C)(C)c1cc(Br)cc(C(C)(C)C)c1O	%	120
CC1CC(=O)OC(C)C1 (stereo not drawn)	%	96.1
O=S(=O)(NCCCNc1nccc(-c2c(-c3ccc(F)cc3)nc3sccn23)n1)c1ccc(F)cc1	%	56.3

Provide the reported growth of each entry below, same order.
1. O=C1/C(=C\c2ccc(F)cc2)CN(C(=O)c2ccc([N+](=O)[O-])cc2)C/C1=C\c1ccc(F)cc1
2. COc1cc(C(=O)N2CCN(c3ccccc3OC)CC2)c(N)cc1OCCCN1CCN(c2ccccc2OC)CC1
3. CN(C)c1ccc(N=C2C=CC(=O)c3ccccc32)cc1
4. O=C(Nc1cccc(Cl)c1)Nc1nccs1
5. COc1cccc(NC(=O)c2sc3nc4c(cc3c2N)C(O)CCC4)c1 (stereo not drawn)
6. C#Cc1ccc(-n2c(/C=C/c3ccc4ccccc4c3)nc3ncccc3c2=O)cc1
7. COc1ccc(/C=C2/CN(C(=O)c3ccc(C)cc3)C/C(=C\c3ccc(OC)cc3)C2=O)cc1
8. CC1(C)N=C(N)N=C(N)N1c1ccc(CCc2ccccc2)c(Cl)c1

Ans.
1: 52; 2: 117; 3: 91.3; 4: 99.2; 5: -7.35; 6: -2.88; 7: 89.4; 8: 40.9

Provide the reported growth of each entry below, same order.
1. Cc1ccc(S(=O)(=O)Oc2ccc3c4c(c(=O)oc3c2)CCCCC4)cc1
2. CC(=O)c1cc(Br)ccc1O
3. N#CCCN1C/C(=C/c2ccc(Br)cc2)C(=O)/C(=C/c2ccc(Br)cc2)C1
4. COc1cc(/C=C/C(=O)c2ccc(Cl)cc2)ccc1OS(=O)(=O)c1ccc(C)cc1
5. Cc1[nH]nc2c1C(c1cnn(C)c1)C(C#N)=C(N)O2 (stereo not drawn)
6. Nc1ncnc2[nH]c(=O)[nH]c12
7. COc1cc(-c2nc(Nc3nc4ccccc4s3)[nH]c(=O)c2C#N)cc(OC)c1O
8. CCCC#CCN(CC)CC

Ans.
[61.8, 106, -39.7, 86.3, 69.9, 128, 103, 105]

Provide the reported growth of each entry below, same order.
1. Cc1ccc(C(=O)N2C/C(=C/c3ccccc3)C(=O)/C(=C/c3ccccc3)C2)cc1
2. CCOC(=O)CNC(=O)CCCCSc1ncnc2nc[nH]c12
3. COc1ccc2nc3cc(Cl)ccc3c(NCCNCC(C)O)c2c1 (stereo not drawn)
4. Cc1ccc(NC(=O)Nc2c(Cl)cccc2Cl)cn1
5. O=C(/C=C/c1cc2ccccc2[nH]c1=O)c1ccc2c(c1)OCO2
6. COc1cc(NC(=O)CCSc2nc3ccc(Cl)cc3c(=O)n2Cc2ccccc2)cc(OC)c1OC

Ans.
1. 71.7
2. 124
3. 37
4. 106
5. 97.6
6. 33.5

Provide the reported growth of each entry below, same order.
1. CN(C)N=Nc1nn(C(=O)Nc2ccc(Cc3ccccc3)cc2)c2ccccc12
2. COc1ccc(OC)c(NC(=O)c2sc3nc4c(cc3c2N)C(=O)CCC4)c1
3. COc1ccc(-c2nc(-c3nc4cc(Cl)c(F)cc4[nH]3)c3ccccn23)cc1
4. CC(=O)c1nc2ccccc2n1CCN1CCN(C)CC1
5. N#Cc1ncc(Br)c(NC2CCCCCC2)n1
6. CCN1CCC(CCOC)(CN2c3ccccc3Sc3ccc(Cl)cc32)C1 (stereo not drawn)
7. NC(=O)c1ccc(-c2cccc3c(=O)nc(N4CCOCC4)oc23)cc1
8. ClCCOCCn1cnc2c(Cl)nc(Cl)nc21

Ans.
1: 82.4; 2: 3.5; 3: 32.4; 4: 36.6; 5: 103; 6: 56.6; 7: 98.2; 8: 93.1

Provide the reported growth of each entry below, same order.
1. CSc1nc(=O)n(Cc2ccc(Cl)cc2)c(=O)[nH]1
2. CCn1cc(C(=O)O)c(=O)c2cnc(N3CCCC3)nc21
3. COc1ccc(-c2nc3sc(-c4ccc(OC)cc4)c(-c4ccc(OC)cc4)n3c2/C=C/c2ccc(C(C)C)cc2)cc1

Ans.
103
87.6
99.1

====

system: NCI-H23 lung; experiment: NCI-60 one-dose screen, 48 h (100 = growth as untreated, 0 = no growth, -100 = all killed); details: 10 µM
Compounds without any hit were thinned out: in the full panel of roughly 83,000, 20% have a hit. Active and inactive are the calls of the source. The calls were made as follows: active = growth percent below 10; inactive = the rest.
ASSAY READOUT: growth

Sample answers from the record:
COMPOUND	growth
O=C(Nc1ccc(Cl)cc1)N1NC(c2ccc(Cl)cc2)C=C1c1ccccc1 (stereo unspecified)	104% (inactive)
COc1cc(-c2cc(/C=C/C(=O)c3ccc(Cl)c(Cl)c3)[nH]n2)cc(OC)c1OC	101% (inactive)
COc1ccc(/C(=C2/O[C@@H]([C@H]3COC(C)(C)O3)[C@H]3OC(C)(C)O[C@@H]23)c2cc(OC)c(OC)c(OC)c2)cc1O	81.2% (inactive)
COc1ccc(-c2nc3ncccn3c2-c2nnc(-c3ccsc3C)o2)cc1	80.5% (inactive)
Cc1ccc(N=Nc2c(N)nc(N)[nH]c2=O)cc1C	101% (inactive)
Nc1c(C(=O)Nc2cccc(F)c2)sc2nc3c(cc12)C(=O)CCC3	41.6% (inactive)
CC12O[C@H](C[C@@H](O)[C@H]1O)n1c3ccccc3c3c4c(c5c6ccccc6n2c5c31)C(=O)N(CCCN)C4=O	28.9% (inactive)
CS(=O)(=O)Nc1ccc(Nc2c3ccccc3nc3cc([N+](=O)[O-])ccc23)cc1	1.7% (active)

Provide the reported growth of each entry below, same order.
1. COc1ccc2c(c1)sc1nc(-c3ccccc3)c(-c3ccsc3)n12
2. Cc1ccc(C)c(C(O)(c2cc(C)ccc2C)C2(O)CCCCC2)c1
3. O=C(Nc1ccc(CN2CCc3nc4cc(O)c(O)cc4cc32)cc1)c1ccc(Cl)c(Cl)c1
4. CNc1ccc(CSc2ccc(C)cc2)cc1
5. O=C(NN1C(=O)CSC1c1ccc(Cl)cc1)c1cccnc1 (stereo unspecified)

Ans.
36% (inactive)
88.5% (inactive)
105% (inactive)
91.2% (inactive)
86.8% (inactive)

Provide the reported growth of each entry below, same order.
1. COc1ccc2nc3cc(Cl)ccc3c(NCCNCC(C)O)c2c1 (stereo unspecified)
2. O=S(=O)(Nc1ccccn1)c1ccc(N=Nc2ccc(O)c3ncccc23)cc1
3. Nc1nc(N)c(NC(=O)CNc2ccc(C(=O)O)cc2)c(N)n1

Ans.
["42.8% (inactive)", "14.5% (inactive)", "112% (inactive)"]

Where do these numbers come from? They come from PubChem BioAssay (NCI).
